tested-target: CB1 (Rattus norvegicus, UniProt P20272)
Sequence (P20272 whole entry): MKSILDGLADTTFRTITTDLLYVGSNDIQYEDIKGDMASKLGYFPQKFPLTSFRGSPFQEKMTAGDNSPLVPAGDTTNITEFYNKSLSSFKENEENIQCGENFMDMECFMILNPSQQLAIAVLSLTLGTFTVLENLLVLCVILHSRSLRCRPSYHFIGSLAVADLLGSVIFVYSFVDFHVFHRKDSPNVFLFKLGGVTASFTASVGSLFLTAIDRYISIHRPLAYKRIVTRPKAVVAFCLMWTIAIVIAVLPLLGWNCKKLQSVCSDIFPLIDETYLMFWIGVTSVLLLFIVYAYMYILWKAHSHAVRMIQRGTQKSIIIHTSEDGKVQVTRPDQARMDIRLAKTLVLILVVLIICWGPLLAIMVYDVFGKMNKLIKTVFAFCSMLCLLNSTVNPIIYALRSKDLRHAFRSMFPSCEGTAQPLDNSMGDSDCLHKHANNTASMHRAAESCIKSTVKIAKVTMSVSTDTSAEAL
test-method-notes: Rat CB1 receptor binding using brain membrane, [3H]SR141716A displacement (Protocol I)
Set-up: CB1 receptor present in a rat brain membrane preparation; from tissue; host or cells: rat brain membrane; dose or concentration left out as unconfirmed
test-context: 1 h; rat brain membrane, [3H]SR141716A displacement; read-out: % Displacement Protocol I
readout-label: inhibition (%)
Reply with just the number (in %).

O=C(NNc1ccccc1F)c1nn(-c2ccc(Cl)cc2Cl)c2c1C1CCC2C1 (stereo not shown)	85.6
O=C(NNc1ccc(Cl)cc1Cl)c1n[nH]c2c1C1(c3ccc(Cl)cc3)CCC2C1 (stereo not shown)	87.2
O=C(Nc1ccc(Cl)cc1)c1nn(-c2ccc(Cl)cc2)c2c1C1CCC2C1 (stereo not shown)	32.2
O=C(NN1CCCCC1)c1nn(-c2ccc(Br)cc2)c2c1C1CCC2C1 (stereo not shown)	25.7
O=C(NNc1ccc(Cl)cc1Cl)c1nn(-c2ccc(Cl)cc2)c2c1C1CC3CC(C1)CC2C3	118
CN(NC(=O)c1nn(-c2ccc(Cl)cc2)c2c1C1CC3CC(C1)CC2C3)C1CCCCC1	97.4

Exercise: Any idea what inhibition came out for O=C(NCc1ccc(Cl)cc1)c1nn(-c2ccc(Cl)cc2)c2c1C1CCC2C1 (stereo not shown) on CB1 (Rattus norvegicus, UniProt P20272)?
Key: 39.4

Exercise: Any idea what inhibition came out for O=C(NCc1ccccc1)c1nn(-c2ccc(Cl)cc2Cl)c2c1C1CCC2C1 (stereo not shown) on CB1 (Rattus norvegicus, UniProt P20272)?
Key: 47.7

Exercise: Any idea what inhibition came out for O=C(NNc1ccccc1Br)c1nn(-c2ccc(Cl)cc2Cl)c2c1C1CCC2C1 (stereo not shown) on CB1 (Rattus norvegicus, UniProt P20272)?
Key: 69.1

Exercise: Any idea what inhibition came out for O=C(NNc1ccccc1Cl)c1nn(-c2ccc(Cl)cc2)c2c1C1CC3CC(C1)CC2C3 on CB1 (Rattus norvegicus, UniProt P20272)?
Key: 89

Where do these numbers come from? They come from patent US7923465B2.
